BMAX, IGF-1 receptor saturation binding in brains of treated rats values for the compounds below.
Target: IGF-I receptor (Rattus norvegicus, UniProt P24062)
Construct: from tissue; host or cells: rat brain (temporal lobe)
Sequence (P24062 31-737 limits assumed): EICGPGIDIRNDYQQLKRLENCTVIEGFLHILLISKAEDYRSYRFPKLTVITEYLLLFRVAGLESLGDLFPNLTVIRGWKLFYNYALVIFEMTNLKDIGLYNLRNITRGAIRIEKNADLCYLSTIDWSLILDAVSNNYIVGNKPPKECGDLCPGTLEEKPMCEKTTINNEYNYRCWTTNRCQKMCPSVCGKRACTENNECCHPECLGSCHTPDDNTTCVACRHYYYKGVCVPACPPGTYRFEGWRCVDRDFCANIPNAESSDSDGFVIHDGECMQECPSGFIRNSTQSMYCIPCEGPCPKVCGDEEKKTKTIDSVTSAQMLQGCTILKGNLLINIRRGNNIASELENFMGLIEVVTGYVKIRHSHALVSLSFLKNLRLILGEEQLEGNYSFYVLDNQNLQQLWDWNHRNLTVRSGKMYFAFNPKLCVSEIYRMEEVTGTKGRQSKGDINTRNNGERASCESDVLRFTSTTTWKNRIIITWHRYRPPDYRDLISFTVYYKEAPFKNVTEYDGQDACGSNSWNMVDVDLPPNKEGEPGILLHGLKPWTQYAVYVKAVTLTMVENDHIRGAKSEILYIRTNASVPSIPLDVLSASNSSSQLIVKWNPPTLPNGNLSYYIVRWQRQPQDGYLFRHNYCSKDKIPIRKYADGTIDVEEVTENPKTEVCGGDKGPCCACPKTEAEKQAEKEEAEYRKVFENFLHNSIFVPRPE
Sequence (P24062 742-1370 limits assumed): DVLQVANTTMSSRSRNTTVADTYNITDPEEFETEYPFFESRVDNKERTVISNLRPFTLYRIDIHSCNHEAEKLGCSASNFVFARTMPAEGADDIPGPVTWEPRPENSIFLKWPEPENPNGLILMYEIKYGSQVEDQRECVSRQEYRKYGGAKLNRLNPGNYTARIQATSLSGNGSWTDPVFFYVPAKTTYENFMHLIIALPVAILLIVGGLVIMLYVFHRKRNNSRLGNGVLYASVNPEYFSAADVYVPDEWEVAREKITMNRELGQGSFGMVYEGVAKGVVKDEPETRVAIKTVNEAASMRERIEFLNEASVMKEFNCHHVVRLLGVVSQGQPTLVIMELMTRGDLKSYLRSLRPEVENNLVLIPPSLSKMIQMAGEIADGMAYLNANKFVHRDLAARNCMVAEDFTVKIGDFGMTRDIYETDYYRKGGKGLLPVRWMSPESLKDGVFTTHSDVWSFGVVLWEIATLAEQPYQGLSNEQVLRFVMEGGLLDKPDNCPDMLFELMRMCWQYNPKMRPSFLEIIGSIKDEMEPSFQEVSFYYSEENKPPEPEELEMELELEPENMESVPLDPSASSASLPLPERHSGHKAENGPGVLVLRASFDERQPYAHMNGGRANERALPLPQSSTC
Assay: ic-STZ ± PPAR agonist: equilibrium and saturation binding to IGF-I receptors in the brain
Assay type: in vivo, Long Evans rat
Conditions: [125I]-IGF-I tracer; pooled brain membranes, 4 weeks after ic-STZ ± IP PPAR agonist

| compound | tested-system | measured-result |
| --- | --- | --- |
| CC(C)C[C@H](NC(=O)OCC1c2ccccc2-c2ccccc21)C(=O)O | IGF-I receptor (Rattus norvegicus, UniProt P24062) | 3.123 fmol/mg protein |
| CCCc1c(OCCCOc2ccc(OCC(=O)O)cc2)ccc(C(C)=O)c1O | IGF-I receptor (Rattus norvegicus, UniProt P24062) | 0.7399 fmol/mg protein |
| CC(C)(Sc1ccc(CCN(CCCCC2CCCCC2)C(=O)NC2CCCCC2)cc1)C(=O)O | IGF-I receptor (Rattus norvegicus, UniProt P24062) | 0.6361 fmol/mg protein |

The record that follows has no BMAX, IGF-1 receptor saturation binding in brains of treated rats shown yet.
# BMAX, IGF-1 receptor saturation binding in brains of treated rats (compound: CN(N=O)C(=O)NC1C(O)OC(CO)C(O)C1O (stereo not shown) ) is 1.204 fmol/mg protein

meta.source: patent US7833513B2
